These measurements were taken from patent US20160324836A1.

- measurement description: Solubility in ethanol
- Format: physicochemical
- test settings: organic solvent or mixture
experimental endpoint: solubility

Task: Item CNC(=O)c1cc(Oc2ccc(NC(=O)Nc3ccc(Cl)c(C(F)(F)F)c3)cc2)ccn1 [sorafenib] has what recorded solubility?
Result: ~3300 µg/mL
